# TGT: Growth factor receptor-bound protein 2 (Homo sapiens, UniProt P62993)
# Sequence (P62993 whole entry): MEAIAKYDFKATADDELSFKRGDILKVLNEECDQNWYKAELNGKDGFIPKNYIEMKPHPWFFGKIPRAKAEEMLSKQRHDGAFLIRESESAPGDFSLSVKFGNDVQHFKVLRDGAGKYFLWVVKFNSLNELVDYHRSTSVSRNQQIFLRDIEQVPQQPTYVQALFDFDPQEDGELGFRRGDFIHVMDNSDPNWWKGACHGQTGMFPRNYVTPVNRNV
Where a SMILES comes first, the peptide text is derived from it. Bridges are numbered along the chain shown (N, C = ends). [ ]: non-standard residue; d: D form. Tyr(3-NH2) = Nc1cc(C[C@H](N)C(=O)O)ccc1O; Gla = N[C@@H](CC(C(=O)O)C(=O)O)C(=O)O; Aad = N[C@@H](CCCC(=O)O)C(=O)O; Ac6c = NC1(C(=O)O)CCCCC1; Ava = NCCCCC(=O)O
Returns: string. Value is True if measured IC50 is below 1 µM, and False if it is greater than or equal to it.

Query :: Please check: IC50 for CC(C)C[C@@H]1NC(=O)[C@H](CCCC(=O)O)NC(=O)CSC[C@@H](C(N)=O)NC(=O)CCCCNC(=O)[C@H](C(C)C)NC(=O)[C@H](CC(N)=O)NC(=O)C2(CCCCC2)NC(=O)[C@H](Cc2ccc(O)cc2)NC1=O ({CH2CO}-[Aad]LY[Ac6c]NV[Ava]C-NH2; thioether N-8) , strictly under 1 µM or not?
Result :: False

Query :: Please do the same for CC(C)C[C@@H]1NC(=O)[C@H](CCCC(=O)O)NC(=O)C[S+]([O-])C[C@@H](C(N)=O)NC(=O)CCCCNC(=O)[C@H](C(C)C)NC(=O)[C@H](CC(N)=O)NC(=O)C2(CCCCC2)NC(=O)[C@H](Cc2ccc(O)cc2)NC1=O (stereo not given in full) as well.
Result :: False

Query :: Please do the same for CC(C)C[C@@H]1NC(=O)[C@H](CC(C(=O)O)C(=O)O)NC(=O)C[S+]([O-])C[C@H](C(N)=O)NC(=O)CCCCNC(=O)[C@H](C(C)C)NC(=O)[C@H](CC(N)=O)NC(=O)C2(CCCCC2)NC(=O)[C@H](Cc2ccc(O)c(N)c2)NC1=O (stereo not given in full) as well.
Result :: False

Query :: Please do the same for CC(C)C[C@@H]1NC(=O)[C@H](CC(C(=O)O)C(=O)O)NC(=O)CSC[C@@H](C(N)=O)NC(=O)CCCCNC(=O)[C@H](C(C)C)NC(=O)[C@H](CC(N)=O)NC(=O)C2(CCCCC2)NC(=O)[C@H](Cc2ccc(O)c(N)c2)NC1=O ({CH2CO}-[Gla]L[Tyr(3-NH2)][Ac6c]NV[Ava]C-NH2; thioether N-8) as well.
Result :: True

Query :: Please do the same for CC(C)C[C@@H]1NC(=O)[C@H](CC(C(=O)O)C(=O)O)NC(=O)C[S+]([O-])C[C@@H](C(N)=O)NC(=O)CCCCNC(=O)[C@H](C(C)C)NC(=O)[C@H](CC(N)=O)NC(=O)C2(CCCCC2)NC(=O)[C@H](Cc2ccc(O)c(N)c2)NC1=O (stereo not given in full) as well.
Result :: True
